- Run description: qHTS assay for identifying genotoxic compounds that show differential cytotoxicity against isogenic chicken DT40 cell lines with known DNA damage response pathways - wild type cell line (AID 743012); also: nearly all actives have a fitted effect of over 60% in size; also: potency is read from the fitted curve at half-maximal effect
- Cond: DT40 wild type chicken cells viability, CellTiter-Glo, 40 h; series mostly up to 68.4 µM
Results filed as inconclusive are left out. Calls of active or inactive are those of the source. Calls follow the shape of the dose curve; as a rule, active = well fitted cell-killing curve with a large enough effect in the repeat runs; inconclusive = weak or mixed curves, or effect the other way; inactive = no such curve, though single readings can be large or run the other way.
Parameter: Potency

Field: example entries. Status: answers known.
[[record]]
compound = "Cc1ccnc2ccccc12"
parameter = "Potency"
val = "inactive"

[[record]]
compound = "CCC(C)(C)C1CCC(O)CC1 (centres undefined)"
parameter = "Potency"
val = "inactive"

[[record]]
compound = "O=C(Nc1ccc([N+](=O)[O-])cc1)Nc1ccc([N+](=O)[O-])cc1"
parameter = "Potency"
val = "10.6 µM (active)"

[[record]]
compound = "C=CC(C)(O)CCCC(C)CCCC(C)CCCC(C)C (centres undefined)"
parameter = "Potency"
val = "inactive"

[[record]]
compound = "CC(C)C(=O)O"
parameter = "Potency"
val = "inactive"

[[record]]
compound = "CC(=O)Oc1ccc(C(=C2CCCCC2)c2ccc(OC(C)=O)cc2)cc1"
parameter = "Potency"
val = "inactive"

[[record]]
compound = "CC(C)(CCl)c1ccccc1"
parameter = "Potency"
val = "inactive"

[[record]]
compound = "CCOC(=O)c1ccccc1OC"
parameter = "Potency"
val = "inactive"


// next item, Potency requested
Could you share which Potency value was measured for "CC(C)=CC=O" ?
inactive
